Overview of recorded EC50 for various compounds
Test system: LM2 and MDA-MB-231 breast cancer cell lines
Assay: PAICS 2D cell proliferation assay
Assay type: cell-based
Conditions: Homo sapiens; 72 hours incubation; cell line (LM2 or MDA-MB-231) not given

Molecule	Observation Type	Recorded Result
Nc1nc(C(=O)Nc2cc(-c3cnc(OC4CCNCC4)nc3)ccc2Cl)co1	EC50	250 to 500 nM
CNC1CCN(Cc2ncc(-c3ccc(Cl)c(NC(=O)c4coc(N)n4)c3)s2)CC1	EC50	< 100 nM

## Task Return reported EC50; argument: "CCNCCn1cc(-c2ccc(Cl)c(NC(=O)c3coc(N)n3)c2)cn1"
## Result 100 to 250 nM
